target desc: recombinant human HDAC8 (Homo sapiens)
Construct: made in house; host or cells: insect cells
Sequence (Q9BY41 whole entry): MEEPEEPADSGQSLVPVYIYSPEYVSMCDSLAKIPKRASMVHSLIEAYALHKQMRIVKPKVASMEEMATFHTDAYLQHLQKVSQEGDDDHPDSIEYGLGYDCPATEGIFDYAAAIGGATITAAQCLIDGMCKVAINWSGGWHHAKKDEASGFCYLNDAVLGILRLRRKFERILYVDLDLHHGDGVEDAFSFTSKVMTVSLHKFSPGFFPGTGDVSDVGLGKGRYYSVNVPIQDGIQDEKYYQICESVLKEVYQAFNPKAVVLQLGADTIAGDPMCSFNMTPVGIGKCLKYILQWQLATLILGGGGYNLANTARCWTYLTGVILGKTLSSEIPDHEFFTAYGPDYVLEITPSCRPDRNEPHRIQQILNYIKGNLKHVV
method summary: HDAC8 inhibition: recombinant HDAC8 fluorometric assay
Assay type: biochemical
run conditions: recombinant human HDAC8, substrate Ac-Arg-His-Lys-Lys(ε-acetyl)-AMC; read-out: HDAC8 IC50
Protocol: HDAC8 Inhibition by Novel Compounds: Recombinant HDAC8 Fluorometric Assay. A competitive inhibitory assay of HDAC8 was carried out by using recombinant HDAC8 and a commercial substrate Ac-Arg-His-Lys-Lys(ε-acetyl)-AMC. Compounds were tested for their ability to inhibit histone deacetylase 8 using an in vitro deacetylation assay. […] The fluorescence signal was measured by a FlexStation3 plate reader (excitation wave length 340-360 nm; emission wave length 440-465 nm). […]
The entries below are paired with their reported pIC50.
Please note pIC50 is a logarithmic value: minus log10 of concentration in mol/L. Answer with that number alone.

Consider the following illustrative entries.
molecule	pIC50
COc1ccc(C(=O)N2CCC(Nc3ccc(C(=O)NO)cc3)C2)cc1 (stereo not drawn) [Example 90]	6.04
CC(C)Oc1cccc(N2CCC(Nc3ccc(C(=O)NO)cc3)C2=O)c1 (stereo not drawn) [Example 9]	5.89
O=C(NO)c1ccc(NC2CCN(c3cc(Cl)cc(Cl)c3)C2=O)cc1 (stereo not drawn) [Example 26]	5.33
CC1(Nc2ccc(C(=O)NO)cc2)C(=O)N(c2cccc(Cl)c2)c2ccncc21 (stereo not drawn) [Example 100]	6.14

// pIC50 value for CC1(Nc2ccc(C(=O)NO)cc2)C(=O)N(c2cccc(Cl)c2)c2ccc(F)cc21 (stereo not drawn) [Example 98] : 5.77

// pIC50 value for O=C(NO)c1ccc(NC2CCN(c3ccc(F)cc3)C2=O)cc1 (stereo not drawn) [Example 4] : 6.05

// pIC50 value for N#Cc1cccc(N2CCC(Nc3ccc(C(=O)NO)cc3)C2=O)c1 (stereo not drawn) [Example 18] : 5.79

// pIC50 value for O=C(NO)c1ccc(NC2CCN(S(=O)(=O)c3ccc(-c4ccccc4)cc3)C2)cc1 (stereo not drawn) [Example 87] : 5.70

// pIC50 value for O=C(NO)c1ccc(NC2CCN(c3c(Cl)cccc3Cl)C2=O)cc1 (stereo not drawn) [Example 27] : 6.12
